Listing of recorded Thermodynamic solubility by entry.
# experiment: Thermodynamic solubility in 0.1 M phosphate buffered saline at pH 6.5 by reversed phase HPLC
# Format: physicochemical
# details: buffer
Please respond with the number in ugA/ml and leave the unit unwritten.

| smiles-code | observed-measurement |
| --- | --- |
| Clc1ccc(-n2c(-c3ccc(Cl)cc3Cl)nc3c(NN4CCCCC4)ncnc32)cc1 | 1.4 |
| CN1CCN(c2ncnc3c2nc(-c2ccccc2Cl)n3-c2ccc(Cl)cc2)CC1 | 0.33 |
| CCNC1(C(N)=O)CCN(c2ncnc3c2nc(-c2ccccc2Cl)n3-c2ccc(Cl)cc2)CC1 | 1.3 |

Proceeding to the next compound to report its Thermodynamic solubility.
Exercise: What Thermodynamic solubility value was documented for this compound, `CN1CCN(c2ncnc3c2nc(-c2ccc(Cl)cc2Cl)n3-c2ccc(Cl)cc2)CC1` ?
Solution: 0.7

----------
# experiment: Lipophilicity, log D of the compound
# Format: physicochemical
# details: octanol/water
measured-metric: logD
Answer as a number with no unit attached.

| smiles-code | observed-measurement |
| --- | --- |
| Clc1ccc(-n2c(-c3ccc(Cl)cc3Cl)nc3c(NN4CCCCC4)ncnc32)cc1 | 5.3 |

Exercise: What logD value was documented for this compound, `CN1CCN(c2ncnc3c2nc(-c2ccccc2Cl)n3-c2ccc(Cl)cc2)CC1` ?
Solution: 4.1

Exercise: Likewise for `CCNC1(C(N)=O)CCN(c2ncnc3c2nc(-c2ccccc2Cl)n3-c2ccc(Cl)cc2)CC1` ?
Solution: 4

Exercise: Likewise for `CN1CCN(c2ncnc3c2nc(-c2ccc(Cl)cc2Cl)n3-c2ccc(Cl)cc2)CC1` ?
Solution: 4.8

----------
# experiment: Metabolic stability in rat liver microsomes assessed as intrinsic clearance
# Assay type: ADME, Microsome
Listing of recorded log10(CLint scaled) by entry.
Lab note - CLint scaled converted to log10 from values in L/h/kg.

| smiles-code | observed-measurement |
| --- | --- |
| CN1CCN(c2ncnc3c2nc(-c2ccc(Cl)cc2Cl)n3-c2ccc(Cl)cc2)CC1 | 2.55 |
| CN1CCN(c2ncnc3c2nc(-c2ccccc2Cl)n3-c2ccc(Cl)cc2)CC1 | 1.95 |
| Clc1ccc(-n2c(-c3ccc(Cl)cc3Cl)nc3c(NC4CCCCC4)ncnc32)cc1 | 3.16 |
| Clc1ccc(-n2c(-c3ccc(Cl)cc3Cl)nc3c(N4CCCCC4)ncnc32)cc1 | 3.66 |
| Clc1ccc(-n2c(-c3ccc(Cl)cc3Cl)nc3c(NN4CCCCC4)ncnc32)cc1 | 2.39 |
| CCNC1(C(N)=O)CCN(c2ncnc3c2nc(-c2ccccc2Cl)n3-c2ccc(Cl)cc2)CC1 | 1.86 |
| Cc1c(C(=O)NN2CCCCC2)nn(-c2ccc(Cl)cc2Cl)c1-c1ccc(Cl)cc1 | 2.73 |

Proceeding to the next compound to report its log10(CLint scaled).
Exercise: What log10(CLint scaled) value was documented for this compound, `Clc1ccc(-n2c(-c3ccccc3Cl)nc3c(N4CCCCC4)ncnc32)cc1` ?
Solution: 2.71

----------
Listing of recorded pKi by entry.
# target-of-assay: Cannabinoid receptor 1 (Homo sapiens, UniProt P21554)
# Sequence (P21554 whole entry): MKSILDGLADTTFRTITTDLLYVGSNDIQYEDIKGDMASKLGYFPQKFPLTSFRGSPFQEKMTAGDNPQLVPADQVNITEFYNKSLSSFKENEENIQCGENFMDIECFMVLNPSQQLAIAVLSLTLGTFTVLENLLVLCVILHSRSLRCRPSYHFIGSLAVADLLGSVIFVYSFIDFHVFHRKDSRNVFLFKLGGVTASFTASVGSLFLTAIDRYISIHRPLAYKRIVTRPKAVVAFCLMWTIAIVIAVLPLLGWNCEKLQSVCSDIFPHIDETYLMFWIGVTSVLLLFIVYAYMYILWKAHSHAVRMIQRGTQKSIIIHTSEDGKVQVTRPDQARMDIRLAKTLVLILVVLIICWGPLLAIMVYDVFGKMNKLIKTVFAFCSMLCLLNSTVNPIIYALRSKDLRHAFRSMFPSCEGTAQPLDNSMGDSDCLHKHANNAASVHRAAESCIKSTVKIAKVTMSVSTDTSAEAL
# experiment: biochemical
# Format: cell-based, HEK293
For clarity, pKi is expressed as the negative log10 of concentration in mol/L.

Exercise: What pKi value was documented for this compound, `Clc1ccc(-n2c(-c3ccccc3Cl)nc3c(N4CCCCC4)ncnc32)cc1` ?
Solution: 8.64

Exercise: Likewise for `Clc1ccc(-n2c(-c3ccc(Cl)cc3Cl)nc3c(NC4CCCCC4)ncnc32)cc1` ?
Solution: 8.15

Exercise: Likewise for `Clc1ccc(-n2c(-c3ccc(Cl)cc3Cl)nc3c(NN4CCCCC4)ncnc32)cc1` ?
Solution: 8.13

Exercise: Likewise for `Clc1ccc(-n2c(-c3ccc(Cl)cc3Cl)nc3c(N4CCCCC4)ncnc32)cc1` ?
Solution: 8.21

Exercise: Likewise for `CN1CCN(c2ncnc3c2nc(-c2ccc(Cl)cc2Cl)n3-c2ccc(Cl)cc2)CC1` ?
Solution: 8.28
